TGI DU-145: recorded values
tested on: DU-145; assay: SRB colorimetric assay of cell growth and viability, DU-145; type: cell-based, human; details: DU-145; 48 hours exposure
Where a SMILES comes first, the peptide text is derived from it. Bridges are numbered along the chain shown (N, C = ends). [ ]: non-standard residue; d: D form. The star is where a group is joined. Bip = N[C@@H](Cc1ccc(-c2ccccc2)cc1)C(=O)O; d(aIle) = CC[C@H](C)[C@@H](N)C(=O)O; d(aThr) = C[C@@H](O)[C@@H](N)C(=O)O; Hexanoyl(5-Me) = CC(C)CCCC(=O)*; Orn = NCCC[C@H](N)C(=O)O; Dhb = C/C=C(\N)C(=O)O

>  <COMPOUND>
C/C=C1\NC(=O)[C@H](Cc2cccc(Cl)c2)NC(=O)[C@@H](C(C)C)NC(=O)[C@@H]([C@@H](C)CC)NC(=O)[C@H](NC(=O)[C@H](NC(=O)[C@H](CCCN)NC(=O)[C@H]2CCCN2C(=O)[C@H](NC(=O)[C@@H](NC(=O)[C@@H](NC(=O)[C@H](NC(=O)CCCC(C)C)C(C)C)[C@@H](C)O)C(C)C)C(C)C)[C@@H](C)CC)[C@@H](C)OC(=O)[C@H](C(C)C)NC1=O [Compound 82, [Phe(3-Cl)^3]-KF]

>  <TGI DU-145 [Molar]>
3.40E−07

$$$$
>  <COMPOUND>
C/C=C1\NC(=O)[C@H](Cc2ccccc2)NC(=O)[C@@H](C(C)C)NC(=O)[C@@H]([C@@H](C)CC)NC(=O)[C@H](NC(=O)[C@H](NC(=O)[C@H](CCCN)NC(=O)[C@H]2CCCN2C(=O)[C@H](NC(=O)[C@@H](NC(=O)[C@@H]2CCCN2C(=O)[C@H](NC(=O)CCCC(C)C)C(C)C)C(C)C)C(C)C)[C@@H](C)CC)[C@@H](C)OC(=O)[C@H](C(C)C)NC1=O [Compound 117, [Pro^12]-KF] ({Hexanoyl(5-Me)}-[dV]PV[dV][dP][Orn][d(aIle)][d(aThr)][d(aIle)][dV]F[Dhb]V; ester 8-C)

>  <TGI DU-145 [Molar]>
5.43E−06

$$$$
>  <COMPOUND>
C/C=C1\NC(=O)[C@H](Cc2ccc(-c3ccccc3)cc2)NC(=O)[C@@H](C(C)C)NC(=O)[C@@H]([C@@H](C)CC)NC(=O)[C@H](NC(=O)[C@H](NC(=O)[C@H](CCCN)NC(=O)[C@H]2CCCN2C(=O)[C@H](NC(=O)[C@@H](NC(=O)[C@@H](NC(=O)[C@H](NC(=O)CCCC(C)C)C(C)C)[C@@H](C)O)C(C)C)C(C)C)[C@@H](C)CC)[C@@H](C)OC(=O)[C@H](C(C)C)NC1=O [Compound 86, [Bip^3]-KF] ({Hexanoyl(5-Me)}-[dV]TV[dV][dP][Orn][d(aIle)][d(aThr)][d(aIle)][dV][Bip][Dhb]V; ester 8-C)

>  <TGI DU-145 [Molar]>
2.56E−07

$$$$
>  <COMPOUND>
C/C=C1\NC(=O)[C@H](Cc2ccccc2)NC(=O)[C@@H](C(C)C)NC(=O)[C@@H]([C@@H](C)CC)NC(=O)[C@H](NC(=O)[C@H](NC(=O)[C@H](CCCN)NC(=O)[C@H]2CCCN2C(=O)[C@H](NC(=O)[C@@H](NC(=O)[C@H](CCC(N)=O)NC(=O)[C@H](NC(=O)CCCC(C)C)C(C)C)C(C)C)C(C)C)[C@@H](C)CC)[C@@H](C)OC(=O)[C@H](C(C)C)NC1=O [Compound 119, [Gln^12]-KF] ({Hexanoyl(5-Me)}-[dV]QV[dV][dP][Orn][d(aIle)][d(aThr)][d(aIle)][dV]F[Dhb]V; ester 8-C)

>  <TGI DU-145 [Molar]>
1.99E−06

$$$$
>  <COMPOUND>
C/C=C1\NC(=O)[C@H](Cc2ccc(Cl)cc2)NC(=O)[C@@H](C(C)C)NC(=O)[C@@H]([C@@H](C)CC)NC(=O)[C@H](NC(=O)[C@H](NC(=O)[C@H](CCCN)NC(=O)[C@H]2CCCN2C(=O)[C@H](NC(=O)[C@@H](NC(=O)[C@@H](NC(=O)[C@H](NC(=O)CCCC(C)C)C(C)C)[C@@H](C)O)C(C)C)C(C)C)[C@@H](C)CC)[C@@H](C)OC(=O)[C@H](C(C)C)NC1=O [Compound 83, [Phe(4-Cl)^3]-KF]

>  <TGI DU-145 [Molar]>
2.07E−07

$$$$
>  <COMPOUND>
C/C=C1\NC(=O)[C@H](Cc2ccccc2)NC(=O)[C@@H](C(C)C)NC(=O)[C@@H]([C@@H](C)CC)NC(=O)[C@H](NC(=O)[C@H](NC(=O)[C@H](CCCN)NC(=O)[C@H]2CCCN2C(=O)[C@H](NC(=O)[C@@H](NC(=O)[C@H](C)NC(=O)[C@H](NC(=O)CCCC(C)C)C(C)C)C(C)C)C(C)C)[C@@H](C)CC)[C@@H](C)OC(=O)[C@H](C(C)C)NC1=O [Compound 112, [Ala^12]-KF] ({Hexanoyl(5-Me)}-[dV]AV[dV][dP][Orn][d(aIle)][d(aThr)][d(aIle)][dV]F[Dhb]V; ester 8-C)

>  <TGI DU-145 [Molar]>
2.82E−06

$$$$
>  <COMPOUND>
C/C=C1\NC(=O)[C@H](Cc2ccccc2)NC(=O)[C@@H](C(C)C)NC(=O)[C@@H]([C@@H](C)CC)NC(=O)[C@H](NC(=O)[C@H](NC(=O)[C@H](CCCN)NC(=O)[C@H]2CCCN2C(=O)[C@H](NC(=O)[C@@H](NC(=O)[C@H](CCC(=O)O)NC(=O)[C@H](NC(=O)CCCC(C)C)C(C)C)C(C)C)C(C)C)[C@@H](C)CC)[C@@H](C)OC(=O)[C@H](C(C)C)NC1=O [Compound 115, [Glu^12]-KF] ({Hexanoyl(5-Me)}-[dV]EV[dV][dP][Orn][d(aIle)][d(aThr)][d(aIle)][dV]F[Dhb]V; ester 8-C)

>  <TGI DU-145 [Molar]>
6.64E−06

$$$$
>  <COMPOUND>
C/C=C1\NC(=O)[C@H](Cc2ccccc2)NC(=O)[C@@H](C(C)C)NC(=O)[C@@H]([C@@H](C)CC)NC(=O)[C@H](NC(=O)[C@H](NC(=O)[C@H](CCCN)NC(=O)[C@H]2CCCN2C(=O)[C@H](NC(=O)[C@@H](NC(=O)[C@H](Cc2ccccc2)NC(=O)[C@H](NC(=O)CCCC(C)C)C(C)C)C(C)C)C(C)C)[C@@H](C)CC)[C@@H](C)OC(=O)[C@H](C(C)C)NC1=O [Compound 114, [Phe^12]-KF] ({Hexanoyl(5-Me)}-[dV]FV[dV][dP][Orn][d(aIle)][d(aThr)][d(aIle)][dV]F[Dhb]V; ester 8-C)

>  <TGI DU-145 [Molar]>
3.75E−07

$$$$
